- Tested on: NCI-H1876 tumor spheroid viability
- Protocol: Anticancer human tumor NCI-H1876 cell line growth inhibition; active = viability on the fitted dose curve at most 10% of control; inactive = the rest;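 note: spheroids exposed to compounds for seven days before the viability read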
- Test Parameters: second compound 1 µM; first compound 3 µM; spheroids with HUVEC and MSC
Your response should consist of one outcome taken from active, inactive

Cc1sc2c(c1C)C(c1ccc(Cl)cc1)=NC(CC(=O)Nc1ccc(O)cc1)c1nnc(C)n1-2 (centres undefined) + Cn1nnc2c(C(N)=O)ncn2c1=O : active
Cn1ncnc1[C@H]1c2n[nH]c(=O)c3cc(F)cc(c23)N[C@@H]1c1ccc(F)cc1 + Cn1nnc2c(C(N)=O)ncn2c1=O : active
O=C(c1cc(Cc2n[nH]c(=O)c3ccccc23)ccc1F)N1CCN(C(=O)C2CC2)CC1 + Cn1nnc2c(C(N)=O)ncn2c1=O : inactive

Below: the item to evaluate.
Prompt: Assay outcome for CNCc1ccc(-c2cc(-c3nc(-c4ccc(S(=O)(=O)C(C)C)cc4)cnc3N)on2)cc1 + Cn1nnc2c(C(N)=O)ncn2c1=O : what was it?
Response: active

---

- Test system: NCI-H1876 tumor spheroid viability
- Protocol: Anticancer human tumor NCI-H1876 cell line growth inhibition;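 note: spheroids exposed to compounds for seven days before the viability read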;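 for viability, T/C: percent of DMSO vehicle control viability so 100% = vehicle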
- Test Parameters: second compound 30 pM; first compound 0.0949 µM; stronger effect = lower value; spheroids with HUVEC and MSC
Experimental Endpoint: viability, T/C (%)
Respond with the bare value in %.

Prompt: Quote viability, T/C with test system NCI-H1876 tumor spheroid viability for Cc1sc2c(c1C)C(c1ccc(Cl)cc1)=NC(CC(=O)Nc1ccc(O)cc1)c1nnc(C)n1-2 (centres undefined) + COc1cc2c(cc1O)CCNC21CSC2c3c(OC(C)=O)c(C)c4c(c3C(COC1=O)N1C(O)C3Cc5cc(C)c(OC)c(O)c5C(C21)N3C)OCO4
Response: 104

Prompt: Quote viability, T/C with test system NCI-H1876 tumor spheroid viability for O=C(c1cc(Cc2n[nH]c(=O)c3ccccc23)ccc1F)N1CCN(C(=O)C2CC2)CC1 + COc1cc2c(cc1O)CCNC21CSC2c3c(OC(C)=O)c(C)c4c(c3C(COC1=O)N1C(O)C3Cc5cc(C)c(OC)c(O)c5C(C21)N3C)OCO4
Response: 99.7

Prompt: Quote viability, T/C with test system NCI-H1876 tumor spheroid viability for CNCc1ccc(-c2cc(-c3nc(-c4ccc(S(=O)(=O)C(C)C)cc4)cnc3N)on2)cc1 + COc1cc2c(cc1O)CCNC21CSC2c3c(OC(C)=O)c(C)c4c(c3C(COC1=O)N1C(O)C3Cc5cc(C)c(OC)c(O)c5C(C21)N3C)OCO4
Response: 97.8

Prompt: Quote viability, T/C with test system NCI-H1876 tumor spheroid viability for Cn1ncnc1[C@H]1c2n[nH]c(=O)c3cc(F)cc(c23)N[C@@H]1c1ccc(F)cc1 + COc1cc2c(cc1O)CCNC21CSC2c3c(OC(C)=O)c(C)c4c(c3C(COC1=O)N1C(O)C3Cc5cc(C)c(OC)c(O)c5C(C21)N3C)OCO4
Response: 28.6

---

- Tested on: NCI-H1876 tumor spheroid viability
- Protocol: Anticancer human tumor NCI-H1876 cell line growth inhibition;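 note: spheroids exposed to compounds for seven days before the viability read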
- Test Parameters: curve of first compound; second compound 0.03 µM; spheroids with HUVEC and MSC
Here, each record is paired with measured IC50 data.

The examples below pair each entry with its known result.
CC1COCCN1c1cc(-c2ccnn2C)c2ccnc(-c3ccn[nH]3)c2n1 (configuration not stated) + CC[C@@]1(O)C(=O)OCc2c1cc1n(c2=O)Cc2cc3c(CN(C)C)c(O)ccc3nc2-1 : < 31.6 nM
Cc1sc2c(c1C)C(c1ccc(Cl)cc1)=NC(CC(=O)Nc1ccc(O)cc1)c1nnc(C)n1-2 (configuration not stated) + CC[C@@]1(O)C(=O)OCc2c1cc1n(c2=O)Cc2cc3c(CN(C)C)c(O)ccc3nc2-1 : < 9.49 nM
Cc1cc(C)c(CNC(=O)c2cc(-c3ccc(CN4CCOCC4)cc3)cc3c2cnn3C2CCCC2)c(=O)[nH]1 + CC[C@@]1(O)C(=O)OCc2c1cc1n(c2=O)Cc2cc3c(CN(C)C)c(O)ccc3nc2-1 : < 31.6 nM
O=C(c1cc(Cc2n[nH]c(=O)c3ccccc23)ccc1F)N1CCN(C(=O)C2CC2)CC1 + CC[C@@]1(O)C(=O)OCc2c1cc1n(c2=O)Cc2cc3c(CN(C)C)c(O)ccc3nc2-1 : < 94.9 nM
Cn1ncnc1[C@H]1c2n[nH]c(=O)c3cc(F)cc(c23)N[C@@H]1c1ccc(F)cc1 + CC[C@@]1(O)C(=O)OCc2c1cc1n(c2=O)Cc2cc3c(CN(C)C)c(O)ccc3nc2-1 : < 9.49 nM
COc1cc(C)[nH]c(=O)c1CN1CCc2c(Cl)cc(C(OC)C3COC3)c(Cl)c2C1=O (configuration not stated) + CC[C@@]1(O)C(=O)OCc2c1cc1n(c2=O)Cc2cc3c(CN(C)C)c(O)ccc3nc2-1 : < 31.6 nM

Now look at this entry.
Prompt: Fill in reported IC50 for this entry: COc1ccc([C@@H](O)c2cc(-c3ncnc4cc(N5CCOCC5)ccc34)c(F)cc2Cl)nn1 + CC[C@@]1(O)C(=O)OCc2c1cc1n(c2=O)Cc2cc3c(CN(C)C)c(O)ccc3nc2-1
Response: < 31.6 nM

---

- Tested on: NCI-H1876 tumor spheroid viability
- Protocol: Anticancer human tumor NCI-H1876 cell line growth inhibition;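 note: spheroids exposed to compounds for seven days before the viability read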;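 for viability, T/C: percent of DMSO vehicle control viability so 100% = vehicle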
- Test Parameters: second compound 0.003 µM; first compound 0.316 µM; stronger effect = lower value; spheroids with HUVEC and MSC
- Procedure: Multicellular complex tumor spheroid response to DNA repair inhibitors in combination with DNA-damaging drugs This study explores the anticancer activities of DNA-damaging drugs and inhibitors of DNA damage repair, both as single agents and in combinations. […] Twenty-six patient-derived or established malignant cell lines were evaluated representing sarcoma, melanoma, small cell lung cancer (SCLC), non-small cell lung cancer (NSCLC), as well as bladder, ovarian and pancreatic cancers. […]
viability, T/C less than 1% is Condition met; viability, T/C greater than or equal to 1% is Condition not met.

Example results:
CC1COCCN1c1cc(-c2ccnn2C)c2ccnc(-c3ccn[nH]3)c2n1 (stereo not given) + CC[C@@]1(O)C(=O)OCc2c1cc1n(c2=O)Cc2cc3c(CN(C)C)c(O)ccc3nc2-1 : Condition not met
[2H]c1nc(C)nc([2H])c1-c1cc(NC[C@@H](C)c2cccc3c(C(=O)NC)ccnc23)ncn1 + COc1cc2c(cc1O)CCNC21CSC2c3c(OC(C)=O)c(C)c4c(c3C(COC1=O)N1C(O)C3Cc5cc(C)c(OC)c(O)c5C(C21)N3C)OCO4 : Condition met
[2H]c1nc(C)nc([2H])c1-c1cc(NC[C@@H](C)c2cccc3c(C(=O)NC)ccnc23)ncn1 + CC[C@@]1(O)C(=O)OCc2c1cc1n(c2=O)Cc2cc3c(CN(C)C)c(O)ccc3nc2-1 : Condition not met

Below: the item to evaluate.
Prompt: I wonder whether COc1ccc([C@@H](O)c2cc(-c3ncnc4cc(N5CCOCC5)ccc34)c(F)cc2Cl)nn1 + CC[C@@]1(O)C(=O)OCc2c1cc1n(c2=O)Cc2cc3c(CN(C)C)c(O)ccc3nc2-1 has viability, T/C below 1%. Can you tell?
Response: Condition not met

---

- Test system: NCI-H1876 tumor spheroid viability
- Protocol: Anticancer human tumor NCI-H1876 cell line growth inhibition;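 note: spheroids exposed to compounds for seven days before the viability read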;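 for viability, T/C: percent of DMSO vehicle control viability so 100% = vehicle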
- Test Parameters: second compound 3.16 µM; first compound 3.16 µM; stronger effect = lower value; spheroids with HUVEC and MSC
Here, each record is paired with measured viability, T/C data.
Respond with the bare value in %.

The examples below pair each entry with its known result.
[2H]c1nc(C)nc([2H])c1-c1cc(NC[C@@H](C)c2cccc3c(C(=O)NC)ccnc23)ncn1 + Cn1nnc2c(C(N)=O)ncn2c1=O : 88.8
Cc1cc(C)c(CNC(=O)c2cc(-c3ccc(CN4CCOCC4)cc3)cc3c2cnn3C2CCCC2)c(=O)[nH]1 + Cn1nnc2c(C(N)=O)ncn2c1=O : 27.2

Prompt: Fill in reported viability, T/C for this entry: CC(C)n1c(=O)n(C)c2cnc3cc(F)c(-c4ccc(OCCCN5CCCCC5)nc4)cc3c21 + Cn1nnc2c(C(N)=O)ncn2c1=O
Response: 29.6

Prompt: Fill in reported viability, T/C for this entry: CC1COCCN1c1cc(-c2ccnn2C)c2ccnc(-c3ccn[nH]3)c2n1 (stereo unspecified) + Cn1nnc2c(C(N)=O)ncn2c1=O
Response: 12.5

Prompt: Fill in reported viability, T/C for this entry: COc1ccc([C@@H](O)c2cc(-c3ncnc4cc(N5CCOCC5)ccc34)c(F)cc2Cl)nn1 + Cn1nnc2c(C(N)=O)ncn2c1=O
Response: 26.5

Prompt: Fill in reported viability, T/C for this entry: COc1cc(C)[nH]c(=O)c1CN1CCc2c(Cl)cc(C(OC)C3COC3)c(Cl)c2C1=O (stereo unspecified) + Cn1nnc2c(C(N)=O)ncn2c1=O
Response: 89.9

---

- Tested on: NCI-H1876 tumor spheroid viability
- Protocol: Anticancer human tumor NCI-H1876 cell line growth inhibition;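 note: spheroids exposed to compounds for seven days before the viability read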;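 for viability, T/C: percent of DMSO vehicle control viability so 100% = vehicle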
- Test Parameters: second compound 100 µM; first compound 0.316 µM; stronger effect = lower value; spheroids with HUVEC and MSC
Experimental Endpoint: viability, T/C

CC1COCCN1c1cc(-c2ccnn2C)c2ccnc(-c3ccn[nH]3)c2n1 (stereo not drawn) + Cn1nnc2c(C(N)=O)ncn2c1=O : 18.8%
CC(C)n1c(=O)n(C)c2cnc3cc(F)c(-c4ccc(OCCCN5CCCCC5)nc4)cc3c21 + Cn1nnc2c(C(N)=O)ncn2c1=O : 43.2%

Now look at this entry.
Prompt: Fill in reported viability, T/C for this entry: COc1cc(C)[nH]c(=O)c1CN1CCc2c(Cl)cc(C(OC)C3COC3)c(Cl)c2C1=O (stereo not drawn) + Cn1nnc2c(C(N)=O)ncn2c1=O
Response: 81.2%

Source of measurements: PubChem BioAssay AID1845207
